- targetUnderTest: Sigma intracellular receptor 2 (Rattus norvegicus, UniProt Q5U3Y7)
- Sequence (Q5U3Y7 whole entry): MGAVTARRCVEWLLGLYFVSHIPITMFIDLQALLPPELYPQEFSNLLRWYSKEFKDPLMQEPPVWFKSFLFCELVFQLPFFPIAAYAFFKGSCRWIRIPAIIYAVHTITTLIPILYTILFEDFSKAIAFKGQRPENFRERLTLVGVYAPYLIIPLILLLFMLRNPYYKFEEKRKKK
- assayInfo: Displacement of [3H]di-o-tolylguanidine from rat liver membrane sigma 2 receptor assessed as inhibition constant measured after 120 mins by scintillation counting method
The following compounds are shown together with reported pKi values.
// returns pKi (minus log10 of molar concentration), number only

Examples with their reported pKi follow.
C[C@@H]1CC[C@@H]2[C@H](C1)OCO[C@@]2(C)CNCCCCc1ccccc1
6.28
C[C@@H]1CC[C@@H]([C@@](C)(O)CNCCCCc2ccccc2)[C@@H](O)C1
6.37
C[C@@H]1CC[C@@H]2[C@@H](C1)OCO[C@]2(C)CNCCCCc1ccccc1
6.49
C[C@@H]1CC[C@@H]([C@](C)(O)CN2CCC(Cc3ccccc3)CC2)[C@@H](O)C1
6.67
C[C@@H]1CC[C@@H]2[C@@H](C1)OCO[C@]2(C)CN1CCC(Cc2ccccc2)CC1
6.42

Moving on to the next compound.
Asked: I'm curious: which pKi was measured for "C[C@@H]1CC[C@@H]2[C@@H](C1)OC(C)(C)O[C@]2(C)CN1CCC(Cc2ccccc2)CC1" tested on Sigma intracellular receptor 2 (Rattus norvegicus, UniProt Q5U3Y7)?
Given back: 6.06

----------
- assayInfo: Plasma protein binding in human by HPAC method
- Type: ADME, cell-free
- conditionContext: read-out: PPB (converted)
The following molecules are shown together with reported fraction unbound values.

Examples with their reported fraction unbound follow.
C[C@@H]1CC[C@@H]2[C@@H](C1)OCO[C@@]2(C)CNCCCCc1ccccc1
0.061
C[C@@H]1CC[C@@H]([C@@](C)(O)CNCCCCc2ccccc2)[C@H](O)C1
0.073
C[C@@H]1CC[C@@H]2[C@@H](C1)O[C@H]1CN(CCCCc3ccccc3)C[C@]2(C)O1
< 0.02

Moving on to the next molecule.
Asked: Can you look up the measured fraction unbound of "C[C@@H]1CC[C@@H]([C@@](C)(O)CN2CCC(Cc3ccccc3)CC2)[C@H](O)C1" for me?
Given back: 0.122

----------
- assayInfo: Lipophilicity, logD of the compound at pH 7.4 by LC-MS analysis
- Format: physicochemical
- conditionContext: buffer
The following compounds are shown together with reported logD values.
Returns: the value as a bare number; no unit string appended.

Examples with their reported logD follow.
C[C@@H]1CC[C@@H]2[C@@H](C1)OCO[C@@]2(C)CN1CCC(Cc2ccccc2)CC1
3.45
C[C@@H]1CC[C@@H]2[C@@H](C1)O[C@H]1CN(CCCCc3ccccc3)C[C@]2(C)O1
3.96
C[C@@H]1CC[C@@H]([C@@](C)(O)CNCCCCc2ccccc2)[C@H](O)C1
1.84
C[C@@H]1CC[C@@H]([C@@](C)(O)CN2CCC(Cc3ccccc3)CC2)[C@H](O)C1
3.05

Moving on to the next compound.
Asked: Can you look up the measured logD of "C[C@@H]1CC[C@@H]2[C@@H](C1)OCO[C@@]2(C)CNCCCCc1ccccc1" for me?
Given back: 2.67

----------
- targetUnderTest: Glutamate receptor ionotropic, NMDA 2B (Mus musculus, UniProt P35438+Q01097)
- Sequence (Q01097 whole entry, one chain of several): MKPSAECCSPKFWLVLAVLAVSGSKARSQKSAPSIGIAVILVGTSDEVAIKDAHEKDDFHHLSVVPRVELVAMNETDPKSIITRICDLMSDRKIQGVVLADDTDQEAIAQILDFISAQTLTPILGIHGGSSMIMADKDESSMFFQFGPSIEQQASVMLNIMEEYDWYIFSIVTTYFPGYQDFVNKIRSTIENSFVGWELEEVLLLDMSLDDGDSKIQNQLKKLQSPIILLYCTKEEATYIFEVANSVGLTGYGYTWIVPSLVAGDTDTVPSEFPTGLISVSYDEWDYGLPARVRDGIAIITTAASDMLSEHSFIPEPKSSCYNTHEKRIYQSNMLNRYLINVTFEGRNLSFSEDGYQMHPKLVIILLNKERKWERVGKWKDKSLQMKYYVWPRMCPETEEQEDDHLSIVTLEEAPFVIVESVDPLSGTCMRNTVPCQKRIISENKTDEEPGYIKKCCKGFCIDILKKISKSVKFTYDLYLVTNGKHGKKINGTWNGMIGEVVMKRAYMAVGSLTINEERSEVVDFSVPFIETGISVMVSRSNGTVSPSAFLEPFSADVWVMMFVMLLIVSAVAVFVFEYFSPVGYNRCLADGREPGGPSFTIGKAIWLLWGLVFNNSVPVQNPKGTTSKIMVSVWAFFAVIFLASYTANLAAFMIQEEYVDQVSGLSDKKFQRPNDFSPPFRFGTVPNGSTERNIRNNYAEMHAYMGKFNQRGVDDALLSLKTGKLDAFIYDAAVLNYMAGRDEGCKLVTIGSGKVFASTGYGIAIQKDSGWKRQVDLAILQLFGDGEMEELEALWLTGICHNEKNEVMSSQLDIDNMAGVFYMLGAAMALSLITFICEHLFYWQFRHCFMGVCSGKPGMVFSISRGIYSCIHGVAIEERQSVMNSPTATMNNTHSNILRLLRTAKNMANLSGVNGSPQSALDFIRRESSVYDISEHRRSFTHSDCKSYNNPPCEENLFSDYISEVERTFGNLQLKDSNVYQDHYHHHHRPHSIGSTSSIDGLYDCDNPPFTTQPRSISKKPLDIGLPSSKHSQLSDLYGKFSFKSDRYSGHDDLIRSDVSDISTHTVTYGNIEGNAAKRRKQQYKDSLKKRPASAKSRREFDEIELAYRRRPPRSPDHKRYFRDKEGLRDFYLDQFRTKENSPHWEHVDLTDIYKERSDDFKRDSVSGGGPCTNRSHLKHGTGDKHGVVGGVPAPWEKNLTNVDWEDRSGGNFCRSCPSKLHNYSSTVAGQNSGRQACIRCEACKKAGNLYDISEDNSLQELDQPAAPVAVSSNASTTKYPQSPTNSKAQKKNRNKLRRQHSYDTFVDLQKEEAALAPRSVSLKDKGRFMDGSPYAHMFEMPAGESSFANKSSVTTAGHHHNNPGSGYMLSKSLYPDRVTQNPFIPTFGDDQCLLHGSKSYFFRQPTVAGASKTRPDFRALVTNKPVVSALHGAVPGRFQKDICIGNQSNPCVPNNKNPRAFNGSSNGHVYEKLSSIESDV
- assayInfo: Displacement of [3H]ifenprodil from GluN2B in mouse LTK cells assessed as inhibition constant measured after 120 mins by scintillation counting method
testReadout: pKi
// returns pKi (minus log10 of molar concentration), number only

Examples with their reported pKi follow.
C[C@@H]1CC[C@@H]2[C@H](C1)OCO[C@@]2(C)CNCCCCc1ccccc1
6.50
C[C@@H]1CC[C@@H]2[C@@H](C1)OCO[C@@]2(C)CNCCCCc1ccccc1
7.21
C[C@@H]1CC[C@@H]([C@](C)(O)CN2CCC(Cc3ccccc3)CC2)[C@@H](O)C1
6.44
C[C@@H]1CC[C@@H]([C@](C)(O)CN2CCC(Cc3ccccc3)CC2)[C@H](O)C1
7.04
C[C@@H]1CC[C@@H]2[C@H](C1)O[C@@H]1CN(CCCCc3ccccc3)C[C@@]2(C)O1
6.05
C[C@@H]1CC[C@@H]([C@@](C)(O)CN2CCC(Cc3ccccc3)CC2)[C@@H](O)C1
6.90

Asked: Can you look up the measured pKi of "C[C@@H]1CC[C@@H]([C@](C)(O)CNCCCCc2ccccc2)[C@@H](O)C1" for me?
Given back: 6.29

Asked: What do you get for "C[C@@H]1CC[C@@H]([C@@](C)(O)CNCCCCc2ccccc2)[C@H](O)C1" ?
Given back: 5.89

----------
- targetUnderTest: Sigma non-opioid intracellular receptor 1 (Cavia porcellus)
- Sequence (Q60492 whole entry): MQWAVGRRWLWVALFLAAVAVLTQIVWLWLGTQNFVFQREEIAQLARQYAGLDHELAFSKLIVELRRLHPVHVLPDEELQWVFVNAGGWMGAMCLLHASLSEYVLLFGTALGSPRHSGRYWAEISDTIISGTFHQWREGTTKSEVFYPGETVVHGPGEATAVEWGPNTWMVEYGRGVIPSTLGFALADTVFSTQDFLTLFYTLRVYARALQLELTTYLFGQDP
- assayInfo: Displacement of [3H]-(+)-pentazocine from guinea pig brain membrane sigma 1 receptor assessed as inhibition constant measured after 120 mins by scintillation counting method
The following molecules are shown together with reported pKi values.
// returns pKi (minus log10 of molar concentration), number only

Examples with their reported pKi follow.
C[C@@H]1CC[C@@H]([C@](C)(O)CNCCCCc2ccccc2)[C@H](O)C1
7.51
C[C@@H]1CC[C@@H]2[C@H](C1)O[C@@H]1CN(CCCCc3ccccc3)C[C@@]2(C)O1
7.27
C[C@@H]1CC[C@@H]2[C@@H](C1)OCO[C@]2(C)CN1CCC(Cc2ccccc2)CC1
8.80
C[C@@H]1CC[C@@H]([C@](C)(O)CNCCCCc2ccccc2)[C@@H](O)C1
7.37
C[C@@H]1CC[C@@H]2[C@@H](C1)OCO[C@@]2(C)CN1CCC(Cc2ccccc2)CC1
8.30
C[C@@H]1CC[C@@H]([C@@](C)(O)CN2CCC(Cc3ccccc3)CC2)[C@@H](O)C1
9.00
C[C@@H]1CC[C@@H]([C@](C)(O)CN2CCC(Cc3ccccc3)CC2)[C@@H](O)C1
7.74
C[C@@H]1CC[C@@H]2[C@H](C1)OCO[C@]2(C)CNCCCCc1ccccc1
7.38

Asked: Can you look up the measured pKi of "C[C@@H]1CC[C@@H]([C@](C)(O)CN2CCC(Cc3ccccc3)CC2)[C@H](O)C1" for me?
Given back: 8.55

Asked: What do you get for "C[C@@H]1CC[C@@H]([C@@](C)(O)CN2CCC(Cc3ccccc3)CC2)[C@H](O)C1" ?
Given back: 8.92

Asked: What do you get for "C[C@@H]1CC[C@@H]([C@@](C)(O)CNCCCCc2ccccc2)[C@@H](O)C1" ?
Given back: 8.15

Asked: What do you get for "C[C@@H]1CC[C@@H]2[C@H](C1)OCO[C@@]2(C)CN1CCC(Cc2ccccc2)CC1" ?
Given back: 8.31

----------
- targetUnderTest: Sigma intracellular receptor 2 (Rattus norvegicus, UniProt Q5U3Y7)
- assayInfo: Displacement of [3H]di-o-tolylguanidine from rat liver membrane sigma 2 receptor assessed as inhibition constant measured after 120 mins by scintillation counting method
The following compounds are shown together with reported pKi values.
// returns pKi (minus log10 of molar concentration), number only

Asked: Can you look up the measured pKi of "C[C@@H]1CC[C@@H]([C@](C)(O)CN2CCC(Cc3ccccc3)CC2)[C@H](O)C1" for me?
Given back: 6.71

Asked: What do you get for "C[C@@H]1CC[C@@H]2[C@@H](C1)OCO[C@@]2(C)CN1CCC(Cc2ccccc2)CC1" ?
Given back: 6.92

Asked: What do you get for "C[C@@H]1CC[C@@H]2[C@H](C1)OCO[C@@]2(C)CN1CCC(Cc2ccccc2)CC1" ?
Given back: 6.84

Asked: What do you get for "C[C@@H]1CC[C@@H]([C@](C)(O)CNCCCCc2ccccc2)[C@@H](O)C1" ?
Given back: 6.58

Asked: What do you get for "C[C@@H]1CC[C@@H]2[C@H](C1)OCO[C@]2(C)CN1CCC(Cc2ccccc2)CC1" ?
Given back: 6.91

Asked: What do you get for "C[C@@H]1CC[C@@H]([C@](C)(O)CNCCCCc2ccccc2)[C@H](O)C1" ?
Given back: 6.68

Asked: What do you get for "C[C@@H]1CC[C@@H]([C@@](C)(O)CNCCCCc2ccccc2)[C@H](O)C1" ?
Given back: 6.07

Asked: What do you get for "C[C@@H]1CC[C@@H]2[C@@H](C1)O[C@@H]1CN(CCCCc3ccccc3)C[C@@]2(C)O1" ?
Given back: 5.80

Asked: What do you get for "C[C@@H]1CC[C@@H]([C@@](C)(O)CN2CCC(Cc3ccccc3)CC2)[C@H](O)C1" ?
Given back: 7.44

Asked: What do you get for "C[C@@H]1CC[C@@H]2[C@H](C1)OCO[C@]2(C)CNCCCCc1ccccc1" ?
Given back: 6.56

Asked: What do you get for "C[C@@H]1CC[C@@H]2[C@H](C1)O[C@@H]1CN(CCCCc3ccccc3)C[C@@]2(C)O1" ?
Given back: 6.11

Asked: What do you get for "C[C@@H]1CC[C@@H]2[C@@H](C1)OC(C)(C)O[C@@]2(C)CN1CCC(Cc2ccccc2)CC1" ?
Given back: 6.19
